The measurements presented in this section are drawn from PubChem BioAssay (NCI).

# Tested on: SF-539 CNS
# PROCEDURE SUMMARY: NCI tumour cell line growth inhibition, 48 h
Exercise: state measured TGI for each of the compounds provided.
Answers are plain numbers, in µM.

>  <COMPOUND>
CCCCCCCCCc1c(Cl)nc(Cl)nc1Cl

>  <TGI (µM)>
32.6

$$$$
>  <COMPOUND>
O=C(c1ccccc1)C(c1ccccc1)C1(O)C(=O)Nc2c(Cl)ccc(Cl)c21 (stereo not given)

>  <TGI (µM)>
44.5

$$$$

Now let's try a different one.
The compound `CC(=O)O[C@H]1CC[C@]2(C)[C@H]3CC=C4[C@@H]5CC(C)(C)CC[C@]5(C(=O)NCCNCCNCCN)CC[C@@]4(C)[C@]3(C)CC[C@H]2C1(C)C` showed TGI equal to 3.17

* * *

# Tested on: NCI-H522 lung
# PROCEDURE SUMMARY: NCI tumour cell line growth inhibition, 48 h; in the data active means GI50 below about 0.43 µM; inactive means the rest
Write down one outcome, taken from active, inactive

Study these solved cases before continuing.
>  <COMPOUND>
O=C(c1ccccc1)c1c(C(F)(F)F)n([O-])c2ccc(F)cc2[n+]1=O

>  <SYSTEM TESTED>
NCI-H522 lung

>  <LABEL CLASS>
inactive

$$$$
>  <COMPOUND>
Cc1cc2c(cc1C)[n+](=O)c(C(=O)C(C)(C)C)c(C(F)(F)F)n2[O-]

>  <SYSTEM TESTED>
NCI-H522 lung

>  <LABEL CLASS>
inactive

$$$$
>  <COMPOUND>
Cc1ccc(C(=Nc2ccccc2)N=P(c2ccccc2)(c2ccccc2)c2ccccc2)cc1

>  <SYSTEM TESTED>
NCI-H522 lung

>  <LABEL CLASS>
inactive

$$$$
>  <COMPOUND>
c1ccc2nc3c(cc2c1)Sc1cc2ccccc2[n+]2c1N3CC2

>  <SYSTEM TESTED>
NCI-H522 lung

>  <LABEL CLASS>
inactive

$$$$
>  <COMPOUND>
Nc1ncc(-c2ccc3ncnc(N4CCc5ccc(Cl)cc54)c3c2)cn1

>  <SYSTEM TESTED>
NCI-H522 lung

>  <LABEL CLASS>
inactive

$$$$

Now consider a different compound.
Prompt: Hi, do you know how `COc1cccc(C(=O)c2sc(Nc3ccc(N4CCN(C(C)C)CC4)cc3)nc2N)c1` came out in this test?
Response: inactive

* * *

This document collects GI50 values reported for HCC-2998 colon.

Consider the following items and state reported GI50 for each.
1. CCN(CC)c1ccc(C2=NN(C(C)=O)C(c3cc(OC)c(OC)c(OC)c3)C2)cc1 (stereo not drawn)
2. CCN(Cc1ccccc1F)c1ccc(CO)c(Cl)c1
3. CC12OC(CC(O)C1O)n1c3ccccc3c3c4c(c5c6ccccc6n2c5c31)C(=O)N(CCN1CCCC1)C4=O (stereo not drawn)
4. COc1ccc2c(NCCCCCCCCNc3c4ccccc4nc4cc(OC)ccc34)c3ccccc3nc2c1

Response:
1. 1050 nM
2. 8410 nM
3. 3960 nM
4. 71.8 nM

* * *

Would you mind telling me the reported TGI of each entry?
# System: MDA-MB-435
# PROCEDURE SUMMARY: NCI tumour cell line growth inhibition, 48 h

>  <COMPOUND>
Nc1ncc(-c2ccc3ncnc(N4CCc5ccc(Cl)cc54)c3c2)cn1

>  <TGI>
> 100 µM

$$$$

Please report TGI for every entry that follows.
1. CCN(CC)CCOc1cccc2nc3c(cc12)Cn1c-3cc2c(c1=O)COC(=O)C2(O)CC (stereo not given)
2. COc1cc(Nc2c(C#N)[n+]([O-])c3ccccc3[n+]2[O-])cc(OC)c1OC

Response:
["28.2 µM", "> 100 µM"]

Below are some compounds; for each one, tell me its TGI.
1. COc1cc2cc(c1Cl)N(C)C(=O)C[C@H](OC(=O)[C@H](C)N(C)C(=O)CCS)C[C@]1(C)O[C@H]1[C@H](C)[C@@H]1C[C@@](O)(NC(=O)O1)[C@H](OC)/C=C/C=C(\C)C2
2. C/C(=N\NC(=O)c1ccc(C(C)(C)C)cc1)c1ccc(O)cc1O

Response:
< 0.005 µM
> 100 µM

* * *

# Tested on: RPMI-8226 leukemia
# PROCEDURE SUMMARY: NCI tumour cell line growth inhibition, 48 h
Hi there, I'd appreciate the recorded TGI for every entry that follows.
Numbers only, in µM.

The cases that follow already have their TGI on record.
>  <SMILES TEXT>
CS(=O)(=O)Nc1ccc(Nc2c3ccccc3nc3cc([N+](=O)[O-])ccc23)cc1

>  <SYSTEM TESTED>
RPMI-8226 leukemia

>  <METRIC>
TGI

>  <UNITS SYMBOL>
µM

>  <OBS VALUE>
4.31

$$$$
>  <SMILES TEXT>
COc1cc(/C=C2\CCc3ccccc3C2=O)ccc1O

>  <SYSTEM TESTED>
RPMI-8226 leukemia

>  <METRIC>
TGI

>  <UNITS SYMBOL>
µM

>  <OBS VALUE>
50.2

$$$$

Would you kindly look at the next entry?
Please fill in: TGI reported for `CCN(Cc1ccccc1F)c1ccc(CO)c(Cl)c1` = 22.8

* * *

Answer each item with its documented GI50.
# Tested on: HT29 colon
# PROCEDURE SUMMARY: NCI tumour cell line growth inhibition, 48 h

Here are 4 compounds. What values of GI50 were reported for them?
1. O=C(CI)OCC(COC(=O)CI)OC(=O)CI
2. Cc1cc2c(cc1C)[n+](=O)c(C(=O)C(C)(C)C)c(C(F)(F)F)n2[O-]
3. CCOC(=O)C1=C(C)N=C2SC=C(c3ccccc3)N2[C@H]1c1cn[nH]c1-c1ccc(Cl)cc1
4. CC(C)Cc1ccc(C(C)C(=O)NCc2ccc(Cn3c(=O)sn(CCCCl)c3=O)cc2)cc1 (centres undefined)

Response:
1. 2.92 µM
2. 31.7 µM
3. 4.32 µM
4. 1.6 µM

* * *

# Tested on: MCF7 breast
# PROCEDURE SUMMARY: NCI tumour cell line growth inhibition, 48 h
Please respond with reported TGI for every item in the list.

Sample answers from the record:
>  <COMPOUND>
O=C(O)CCn1cnc2c(=S)nc[nH]c21

>  <METRIC>
TGI

>  <OBS VALUE>
> 100 µM

$$$$
>  <COMPOUND>
OC1c2c(ccc3c2CCC3)CC12Cc1ccccc1C2 (stereo unspecified)

>  <METRIC>
TGI

>  <OBS VALUE>
32.8 µM

$$$$
>  <COMPOUND>
COc1cc(C(=O)N2CCN(c3ccccn3)CC2)c(N)cc1OCc1ccccc1

>  <METRIC>
TGI

>  <OBS VALUE>
> 100 µM

$$$$
>  <COMPOUND>
Cc1csc(-n2nc(C)cc2C)n1

>  <METRIC>
TGI

>  <OBS VALUE>
> 100 µM

$$$$
>  <COMPOUND>
CCOC(=O)/C(=N/Nc1ccc(C)cc1)N1C(=S)C=C(C)NN(C)C1=S

>  <METRIC>
TGI

>  <OBS VALUE>
> 100 µM

$$$$

Dear reader, for each entry below, please note its TGI.
1. O=C(CNC(=O)c1ccccc1)Oc1c(Cl)c(Cl)c(Cl)c(Cl)c1Cl
2. O=C1/C(=C/c2ccc(O)c(CN3CCCCC3)c2)CCC/C1=C\c1ccc(O)c(CN2CCCCC2)c1
3. O=C(O)c1ccc(Cc2ccccc2C(=O)O)cc1
4. COc1cccc(C(=O)c2sc(Nc3ccc(N4CCN(C(C)C)CC4)cc3)nc2N)c1
5. CC12OC(CC(O)C1O)n1c3ccccc3c3c4c(c5c6ccccc6n2c5c31)C(=O)N(CCN1CCCC1)C4=O (stereo unspecified)

Response:
["> 100 µM", "15.5 µM", "> 100 µM", "3.38 µM", "5.88 µM"]

For every listed record, write down its TGI.
1. COc1ccc(-c2cc(=O)oc3ccc(Cl)cc23)cc1F
2. Cc1nc2ccc(Nc3nc(Cl)nc(Nc4ccc(F)cc4)n3)cc2n1Cc1ccccc1
3. Nc1ccn(C2OC(CO)C(O)C2(F)F)c(=O)n1 (stereo unspecified)

Response:
["18.6 µM", "12.4 µM", "> 100 µM"]

# batch size: 7; output TGI per entry
1. Cc1ccc(S(=O)(=O)NNC(=O)Nc2ccc(Cl)cc2)cc1
2. CCCCCCCCCc1c(Cl)nc(Cl)nc1Cl
3. CS(=O)(=O)Nc1ccc(Nc2c3ccccc3nc3cc([N+](=O)[O-])ccc23)cc1
4. Cc1cc(-c2ccc[nH]2)on1
5. S=c1ncc2n[nH]nc2[nH]1
6. O=C(Cc1csc2nc(-c3ccc(Br)cc3)cn12)N/N=C/c1ccccc1
7. CC(C)Oc1c(N(Cc2ccccc2)c2ccccc2C2SCCCS2)c(=O)c1=O

Response:
["> 100 µM", "36.5 µM", "2.72 µM", "> 100 µM", "> 100 µM", "> 100 µM", "> 100 µM"]

Would you be so kind as to report TGI for each listed record?
1. COc1cc2cc(c1Cl)N(C)C(=O)C[C@H](OC(=O)[C@H](C)N(C)C(=O)CCS)C[C@]1(C)O[C@H]1[C@H](C)[C@@H]1C[C@@](O)(NC(=O)O1)[C@H](OC)/C=C/C=C(\C)C2
2. CCCCCCSC[C@H](OC(C)=O)[C@@H](OC(C)=O)[C@@H](OC(C)=O)[C@@H](COC(C)=O)OC(C)=O
3. C=C(C)c1ccccc1 (tested in a mixture with another compound)
4. Nc1ncc(-c2ccc3ncnc(N4CCc5ccc(Cl)cc54)c3c2)cn1
5. CC(C)=CCC/C(C)=C/CCC(C(=O)COCc1ccccc1)P1(=O)OC(C)(C)CN1C(C)(C)C (stereo unspecified)
6. O=C(CC(C(=O)c1ccc(F)cc1)c1ccsc1)c1cccs1 (stereo unspecified)
7. NC1CCCCC1
8. CCCCCCCC/C=C(\Br)C(O)C(Br)Br (stereo unspecified)

Response:
1: > 50 µM; 2: > 100 µM; 3: > 100 µM; 4: 31.7 µM; 5: > 100 µM; 6: > 100 µM; 7: > 562 µM; 8: 98.3 µM

Batch request: TGI per item, same order as input.
1. CC(C)(C)OC(=O)NC(Cc1ccc(OCc2ccccc2)cc1)C(=O)NC(COCc1ccccc1)C(=O)Oc1c(Cl)c(Cl)c(Cl)c(Cl)c1Cl (stereo unspecified)
2. COc1ccc(-n2c(N)c(C#N)c(C#N)c2-c2cccc([N+](=O)[O-])c2)cc1
3. OCc1cn(Cc2ccc(Cl)cc2)c2ccccc12

Response:
1: 48.2 µM; 2: > 100 µM; 3: 9.02 µM
